Target: T1, human OX40 antigen (soluble, titrated in the ELISA of Example 1) (UniProt P43489 29-216)
T1 chain: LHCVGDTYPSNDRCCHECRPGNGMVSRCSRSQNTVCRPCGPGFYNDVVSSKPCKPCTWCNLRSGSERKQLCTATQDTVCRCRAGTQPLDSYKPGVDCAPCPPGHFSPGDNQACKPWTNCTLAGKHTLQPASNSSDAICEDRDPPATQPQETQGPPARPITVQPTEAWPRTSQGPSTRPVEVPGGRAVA
Test: ELISA, immobilized Ab
A collection of binders and their measured IC50
Expressed in µg/mL, but write only the number.

[[record]]
binder = "5-G8 variant anti-OX40 antibody (antibody, V domains shown) VH: QVQLVQSGAEVKKPGASVKVSCKTSGYTFTGYYLHWVRQAPGQGLEWMGIINPSDGSTRNAQKFEGRVTMTRDTSTSTVYMELSSLSPEDTAVYYCARDLEYIGSGSLSWFDPWGQGTLVTVSS VL: QSALTQPASVSGSPGQSITISCTGSSSDIGGYNSVSWYQQYPGKAPKLIIYDVNNRPSGVSNRFSGSKSGNTASLTISGLQAEDEADYYCSSYTYYTELVYVFGTGTKVTVL"
quantitative_readout = 0.0254

[[record]]
binder = "5-A8 variant anti-OX40 antibody (antibody, V domains shown) VH: QVQLVQSGAEVKKPGASVKVSCKTSGYTFTGYYLHWVRQAPGQGLEWMGIINPSDGSTRNAQKFEGRVTMTRDTSTSTVYMELSSLSPEDTAVYYCARDLEYIGSGSLSWFDPWGQGTLVTVSS VL: QSALTQPASVSGSPGQSITISCTGSSSDIGGYNSVSWYQQYPGKAPKLIIYDVNNRPSGVSNRFSGSKSGNTASLTISGLQAEDEADYYCSSYTFHTGLVYVFGTGTKVTVL"
quantitative_readout = 0.0163

[[record]]
binder = "5-A6 variant anti-OX40 antibody (antibody, V domains shown) VH: QVQLVQSGAEVKKPGASVKVSCKTSGYTFTGYYLHWVRQAPGQGLEWMGIINPSDGSTRNAQKFEGRVTMTRDTSTSTVYMELSSLSPEDTAVYYCARDLEYIGSGSLSWFDPWGQGTLVTVSS VL: QSALTQPASVSGSPGQSITISCTGSSSDIGGYNSVSWYQQYPGKAPKLIIYDVNNRPSGVSNRFSGSKSGNTASLTISGLQAEDEADYYCSSYTFDTGLVYVFGTGTKVTVL"
quantitative_readout = 0.0117

[[record]]
binder = "5-F5 variant anti-OX40 antibody (antibody, V domains shown) VH: QVQLVQSGAEVKKPGASVKVSCKTSGYTFTGYYLHWVRQAPGQGLEWMGIINPSDGSTRNAQKFEGRVTMTRDTSTSTVYMELSSLSPEDTAVYYCARDLEYIGSGSLSWFDPWGQGTLVTVSS VL: QSALTQPASVSGSPGQSITISCTGSSSDIGGYNSVSWYQQYPGKAPKLIIYDVNNRPSGVSNRFSGSKSGNTASLTISGLQAEDEADYYCSSYTYDTGLVYVFGTGTKVTVL"
quantitative_readout = 0.0263

[[record]]
binder = "5-C8 variant anti-OX40 antibody (antibody, V domains shown) VH: QVQLVQSGAEVKKPGASVKVSCKTSGYTFTGYYLHWVRQAPGQGLEWMGIINPSDGSTRNAQKFEGRVTMTRDTSTSTVYMELSSLSPEDTAVYYCARDLEYIGSGSLSWFDPWGQGTLVTVSS VL: QSALTQPASVSGSPGQSITISCTGSSSDIGGYNSVSWYQQYPGKAPKLIIYDVNNRPSGVSNRFSGSKSGNTASLTISGLQAEDEADYYCSSYTHNTGLVYVFGTGTKVTVL"
quantitative_readout = 0.00353

[[record]]
binder = "2B4 wild type anti-OX40 antibody (antibody, V domains shown, Fully human antibody of an IgG class, captured or detected through human Fc; the isotype control used was IgG1; also called 2B4 (WT); wild type 2B4) VH: QMQLVQSGAEVKKPGASVKVSCKTSGYTFTGYYLHWVRQAPGQGLEWMGIINPSDGSTRNAQKFEGRVTMTRDTSTSTVYMELSSLSPEDTAVYYCARDLEYIGSGSLSWFDPWGQGTLVTVSS VL: QPVLTQPASVSGSPGQSITISCTGTSSDLGAYDYVSWYQQQPGQAPKLIIYDVNNRPSGVSNRFSGSKSGNTASLTISGLQAEDEADYYCSSYTSSSTLVYVFGTGTKVTVL"
quantitative_readout = 0.168


Turning to the following binder.
Determine its reported IC50: 5-H6 variant anti-OX40 antibody (antibody, V domains shown) VH: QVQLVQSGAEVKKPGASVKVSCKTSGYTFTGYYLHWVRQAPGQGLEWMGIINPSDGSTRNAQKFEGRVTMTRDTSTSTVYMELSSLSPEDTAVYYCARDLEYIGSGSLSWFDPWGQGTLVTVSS VL: QSALTQPASVSGSPGQSITISCTGSSSDIGGYNSVSWYQQYPGKAPKLIIYDVNNRPSGVSNRFSGSKSGNTASLTISGLQAEDEADYYCSSYTYDNDLVYVFGTGTKVTVL 0.0275
